# Details: 328.15 K; 101.33 kPa; Liquid; Vibrating tube method
Measurement kind: mass density (kg/m3)

compound="CC(=O)[O-].CCCC[NH2+]CCO [N-(2-hydroxyethyl)butan-1-aminium acetate]" value_reported=996.6
compound="CCC(=O)[O-].CCCC[NH2+]CCO [N-(2-hydroxyethyl)butan-1-aminium propionate]" value_reported=979.9
compound="CCCC[NH2+]CCO.O=C[O-] [N-(2-hydroxyethyl)butan-1-aminium formate]" value_reported=1017
compound="CCCCC(=O)[O-].CCCC[NH2+]CCO [N-(2-hydroxyethyl)butan-1-aminium pentanoate]" value_reported=944.8
compound="CCCC(=O)[O-].CCCC[NH2+]CCO [N-(2-hydroxyethyl)butan-1-aminium butyrate]" value_reported=958.3

Ref: the NIST ThermoML archive (doi:10.1016/j.fluid.2016.07.022)
